test system: SNU-C4 xenografted nude mice; experiment: Biodistribution study in SNU-C4 xenografted nude mice after intravenous injection; type: in vivo, mouse; conditions: muscle, 10 min after intravenous injection
Please provide measured % ID/g Muscle for the entries that follow.

{"MOLECULE": "NC(CN1CCN(CC(=O)[O-])CCNCCN(CC(=O)[O-])CC1)C(=O)[O-].[68Ga+3] (centres unmarked) [^68Ga-DO2A-ala]", "ASSAY_SYSTEM": "SNU-C4 xenografted nude mice", "% ID/g Muscle": "2.08 ± 0.43 % ID/g"}
{"MOLECULE": "O=C([O-])CN1CCN(CC(=O)[O-])CCN(CC(=O)O)CCN(CC(=O)[O-])CC1.[68Ga+3] [^68Ga-DOTA, reference compound]", "ASSAY_SYSTEM": "SNU-C4 xenografted nude mice", "% ID/g Muscle": "2.08 ± 0.11 % ID/g"}
{"MOLECULE": "NC(CNC(=O)CN1CCN(CC(=O)[O-])CCN(CC(=O)[O-])CC1)C(=O)[O-].[68Ga+3] (centres unmarked) [^68Ga-NOTA-ala]", "ASSAY_SYSTEM": "SNU-C4 xenografted nude mice", "% ID/g Muscle": "2.29 ± 0.52 % ID/g"}
{"MOLECULE": "O=C([O-])CN1CCNCCN(CC(=O)[O-])CCN(CC(=O)[O-])CC1.[68Ga+3] [^68Ga-DO3A, reference compound]", "ASSAY_SYSTEM": "SNU-C4 xenografted nude mice", "% ID/g Muscle": "1.69 ± 0.39 % ID/g"}
{"MOLECULE": "O=C([O-])CN1CCNCCN(CC(=O)[O-])CCNCC1.[68Ga+3] [^68Ga-DO2A, reference compound]", "ASSAY_SYSTEM": "SNU-C4 xenografted nude mice", "% ID/g Muscle": "2.81 ± 0.82 % ID/g"}
{"MOLECULE": "O=C([O-])CN1CCN(CC(=O)[O-])CCN(CC(=O)[O-])CC1.[68Ga+3] [^68Ga-NOTA, reference compound]", "ASSAY_SYSTEM": "SNU-C4 xenografted nude mice", "% ID/g Muscle": "1.68 ± 0.86 % ID/g"}
{"MOLECULE": "N[C@@H](CN1CCN(CC(=O)[O-])CCN(CC(=O)[O-])CCN(CC(=O)[O-])CC1)C(=O)O.[68Ga+3] (stereo in doubt) [^68Ga-DO3A-ala]", "ASSAY_SYSTEM": "SNU-C4 xenografted nude mice", "% ID/g Muscle": "3.52 ± 0.42 % ID/g"}

Turning now to a further record.
input: Can you look up the measured % ID/g Muscle of NC(CNC(=O)CN1CCN(CC(=O)[O-])CCN(CC(=O)[O-])CCN(CC(=O)[O-])CC1)C(=O)O.[68Ga+3] (centres unmarked) [^68Ga-DOTA-ala] for me?
output: 2.12 ± 0.64 % ID/g

====

Tested on: SNU-C4 xenografted nude mice
Assay: Biodistribution study in SNU-C4 xenografted nude mice after intravenous injection
Assay type: in vivo, mouse
Settings: SNU-C4 tumor, 1 hr after intravenous injection
Method: Human colon cancer cell line SNU-C4 was cultured in RPMI1640 media containing 10% fetal bovine serum and harvested using trypsin. The cells were washed using 10 mL PBS and centrifugation at 3,000 rpm. […] The injected mice were sacrificed at 10 min, 30 min, 1 hr, and 2 hr, cancer, blood, muscle, heart, liver, spleen, stomach, intestine, and bone were obtained, weighed, and their radioactivities were counted. The results were expressed as percentages of injected dose per gram tissue (% ID/g).
Please provide measured % ID/g Tumor for the entries that follow.
Give bare numbers, in % ID/g.

Some entries whose results are on file:
{"COMPOUND": "O=C([O-])CN1CCNCCN(CC(=O)[O-])CCNCC1.[68Ga+3] [^68Ga-DO2A, reference compound]", "% ID/g Tumor [% ID/g]": 0.99}
{"COMPOUND": "NC(CNC(=O)CN1CCN(CC(=O)[O-])CCN(CC(=O)[O-])CCN(CC(=O)[O-])CC1)C(=O)O.[68Ga+3] (stereo not shown) [^68Ga-DOTA-ala]", "% ID/g Tumor [% ID/g]": 0.93}
{"COMPOUND": "O=C([O-])CN1CCNCCN(CC(=O)[O-])CCN(CC(=O)[O-])CC1.[68Ga+3] [^68Ga-DO3A, reference compound]", "% ID/g Tumor [% ID/g]": 0.93}

Turning now to a further record.
input: Can you look up the measured % ID/g Tumor of NC(CN1CCN(CC(=O)[O-])CCNCCN(CC(=O)[O-])CC1)C(=O)[O-].[68Ga+3] (stereo not shown) [^68Ga-DO2A-ala] for me?
output: 1.05
